molecular target: zDHHC20 (Homo sapiens, UniProt Q5W0Z9); experiment: PTP fluorogenic turn-on assay with purified zDHHC20; type: biochemical
Sequence (Q5W0Z9 whole entry): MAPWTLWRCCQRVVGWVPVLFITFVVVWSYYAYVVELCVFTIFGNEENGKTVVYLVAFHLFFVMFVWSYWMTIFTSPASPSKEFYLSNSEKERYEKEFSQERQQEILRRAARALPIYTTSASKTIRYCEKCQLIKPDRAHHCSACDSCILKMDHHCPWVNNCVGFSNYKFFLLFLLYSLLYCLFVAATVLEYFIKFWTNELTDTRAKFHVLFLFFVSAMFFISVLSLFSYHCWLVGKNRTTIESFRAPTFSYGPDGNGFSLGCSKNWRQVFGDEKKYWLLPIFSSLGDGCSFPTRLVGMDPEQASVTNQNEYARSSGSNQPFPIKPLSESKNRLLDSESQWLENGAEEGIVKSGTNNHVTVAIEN
parameter-measured: pIC50
Give bare numbers, as −log10 of the molar value.

Please indicate recorded pIC50 of CCCCCCCCCCCCCCC(Br)C(=O)O (stereo not shown) [2BP, 2-Bromopalmitate] measured with zDHHC20 (Homo sapiens, UniProt Q5W0Z9). 5.69

====

target: zDHHC20 (Homo sapiens); assay: PTP fluorogenic turn-on assay with purified zDHHC20; format: biochemical; conditions: read-out: IC50
parameter-measured: IC50 (nM)
Answers are plain numbers, in nM.

Please indicate recorded IC50 of C=CC(=O)N(CC#N)CCCCCCCCCCCCCC [CMA, cyanomyracrylamide] measured with zDHHC20 (Homo sapiens). 463
